System: Fibroblast
Experiment: Multiplex assay against human fibroblast
Type: toxicity, cell-based
Conditions: 12 h, 1 µM, compound concentration 1 uM, replicate 1
Recorded measurements of Total Cell Count, one per entry
Give a plain numeric answer without units written out.

Answered cases to consult:
CN(C)CCOc1ccc(-c2nc(-c3ccncc3)c(-c3ccc4c(c3)CC/C4=N\O)[nH]2)cc1; 562
CNc1oc(-c2cccc3ccccc23)nc1C#N; 381
COc1cc(N2CCC(N(C)C)CC2)ccc1Nc1ncc(Cl)c(Nc2ccccc2P(C)(C)=O)n1; 202
Cc1cc2c(cc1N1C(=O)c3cccc4c(CCCO)ccc(c34)C1=O)n(C)c(=O)n2C; 148

### Prompt Lookup: Total Cell Count / Fibroblast / CCOc1cc2ncc(C#N)c(Nc3ccc(OCc4cccc(F)c4)c(Cl)c3)c2cc1NC(=O)/C=C/CN(C)C
### Response 223

### Prompt Please provide the recorded Total Cell Count for CNC(=O)c1nn(C)c2c1C(C)(C)Cc1cnc(Nc3ccc(N4CCN(C)CC4)cc3)nc1-2 , tested on Fibroblast.
### Response 202

### Prompt Checklist item: Total Cell Count tested on Fibroblast, entry CC(C)(C)c1cnc(CSc2cnc(NC(=O)C3CCNCC3)s2)o1 , value?
### Response 199

### Prompt Find Total Cell Count (Fibroblast) for the entry CCn1c(-c2nonc2N)nc2cnc(Oc3cccc(NC(=O)c4ccc(OCCN5CCOCC5)cc4)c3)cc21 [GSK-269962A]
### Response 141

### Prompt Give recorded Total Cell Count with Fibroblast for the following molecule: CNC(=O)c1cc(Oc2ccc(NC(=O)Nc3cc(C(C)(C)C)nn3-c3ccc4ncccc4c3)c(F)c2)ccn1
### Response 237

### Prompt Entry CC(C)Oc1ccc(C(=O)N[C@H](CNC(=O)CN(C)C)Cc2ccc(-c3cn4cccc([C@H](C)O)c4n3)cc2)cc1Cl [GSK-923295A] , system Fibroblast: what Total Cell Count was measured?
### Response 256

### Prompt Please provide the recorded Total Cell Count for c1ccc2oc(-c3csc(C4CCN(Cc5nc6ncccc6[nH]5)CC4)n3)cc2c1 , tested on Fibroblast.
### Response 160

### Prompt Form entry - test system: Fibroblast; read-out: Total Cell Count; molecule: COc1cc2c(Nc3ccc(NC(=O)c4ccccc4)cc3)ncnc2cc1OCCCN1CCOCC1
### Response 470

### Prompt What Total Cell Count appears in the records for this molecule with Fibroblast? O=C(O)c1ccc2cc(-c3ccc(O)c(C45CC6CC(CC(C6)C4)C5)c3)ccc2c1
### Response 249

### Prompt Recorded Total Cell Count for Cc1cn(-c2cc(NC(=O)c3ccc4c(c3)CN(c3cncnc3)C[C@@H]4C)cc(C(F)(F)F)c2)cn1 with Fibroblast, please?
### Response 147

* * *

Known Population Mitochondria Different-Phenotype (%) of a selection of compounds
Test system: HEK-293T
Assay: Multiplex assay against HEK293T
Type: toxicity, cell-based
Settings: human, 12 h, 1 µM, compound concentration 1 uM, replicate 2
Enter your answer as a number in %; do not include the unit.

Illustrative cases are given below, each with its answer.
CC(C)N1CCC(C)(C)c2cc(C#Cc3ccc(C(=O)O)cc3)ccc21; 12
CN(C)CCOc1ccc(-c2nc(-c3ccncc3)c(-c3ccc4c(c3)CC/C4=N\O)[nH]2)cc1; 23
CNC(=O)c1cc(Oc2ccc(NC(=O)Nc3cc(C(C)(C)C)nn3-c3ccc4ncccc4c3)c(F)c2)ccn1; 3
CCOc1cc2ncc(C#N)c(Nc3ccc(OCc4cccc(F)c4)c(Cl)c3)c2cc1NC(=O)/C=C/CN(C)C; 10
CCOc1cc(N2CCC(O)CC2)ccc1Nc1ncc2c(n1)N(C1CCCC1)CCC(=O)N2C; 15

### Prompt Reported Population Mitochondria Different-Phenotype (%) for CC(=O)c1cc(-c2cc(C(=O)NC3CC3)ccc2C)c2ncccn12 : what is it?
### Response 17

### Prompt Could you tell me which Population Mitochondria Different-Phenotype (%) is on file for Cc1nc(Cc2cccc(C(F)(F)F)c2)sc1-c1ccc(C(N)=O)nc1 [TP-024n] ?
### Response 22

### Prompt Fill in the blank: the reported Population Mitochondria Different-Phenotype (%) of Cl.Cl.Nc1ncnc2c1c(-c1cccc(OCc3ccccc3)c1)cn2[C@H]1C[C@@H](CN2CCC2)C1 is ____.
### Response 97

### Prompt If you can, please state the reported Population Mitochondria Different-Phenotype (%) value of COc1cc2c(Nc3ccc(NC(=O)c4ccccc4)cc3)ncnc2cc1OCCCN1CCOCC1 .
### Response 39

### Prompt Requested field: Population Mitochondria Different-Phenotype (%). Item: CN(C)C/C=C/C(=O)Nc1cc2c(Nc3ccc(F)c(Cl)c3)ncnc2cc1O[C@H]1CCOC1.O=C(O)/C=C\C(=O)O.O=C(O)/C=C\C(=O)O [AFATINIB DIMALEATE]
### Response 13

### Prompt # lookup: Population Mitochondria Different-Phenotype (%) of O=C(O)c1ccc2cc(-c3ccc(O)c(C45CC6CC(CC(C6)C4)C5)c3)ccc2c1
### Response 15
